Reference source: patent US7772271B2

The entries below come with measured melting point values attached.

Some compounds with recorded melting point:
[[record]]
smiles_data = "N#Cc1c(-c2ccc(NS(=O)(=O)C3CC3)cc2)n(C2CCC2)c2cc(OC3CCOCC3)ccc12"
readout_kind = "melting point"
obs_value = "202 to 204 °C"

[[record]]
smiles_data = "N#Cc1c(-c2ccc(NCCCc3ccccc3)cc2)n(C2CCC2)c2cc(OC3CCOCC3)ccc12"
readout_kind = "melting point"
obs_value = "105 to 108 °C"

[[record]]
smiles_data = "N#Cc1c(-c2ccc(NCC3CCCCC3)cc2)n(C2CCC2)c2cc(OC3CCOCC3)ccc12"
readout_kind = "melting point"
obs_value = "175 to 177 °C"

[[record]]
smiles_data = "CCOc1ccc2c(C#N)c(-c3ccc(NC(=O)NCCO)cc3)n(C3CCC3)c2c1"
readout_kind = "melting point"
obs_value = "199 to 203 °C"

[[record]]
smiles_data = "CCCS(=O)(=O)Nc1ccc(-c2c(C#N)c3ccc(Oc4nccnc4C#N)cc3n2C2CCC2)cc1"
readout_kind = "melting point"
obs_value = "218 to 220 °C"


Entry C[C@@H](OC(=O)Nc1ccc(-c2c(C#N)c3ccc(OC4CCS(=O)(=O)CC4)cc3n2C2CCCC2)cc1)C1CC1 has what melting point? 243 to 250 °C

Okay, and CC(C)OC(=O)Nc1ccc(-c2c(C#N)c3cc(C(=O)N(C)C)ccc3n2C2CCC2)cc1 ? 136 to 138 °C

###

READOUT_KIND: melting point

Worked examples, 4 compounds total:
[[record]]
compound = "CCN(CC)c1nc2ccc(-c3c(C#N)c4ccc(OC)cc4n3CC)cc2s1"
obs_value = "155 to 158 °C"

[[record]]
compound = "CCC(=O)Nc1ccc(-c2c(C#N)c3ccc(N4CCN(C)CC4)cc3n2CC)cc1"
obs_value = "170 to 171 °C"

[[record]]
compound = "C[C@@H](OC(=O)Nc1ccc(-c2c(C#N)c3ccc(OCS(C)(=O)=O)cc3n2C2CC2)cc1)C(F)(F)F"
obs_value = "190 to 196 °C"

[[record]]
compound = "CCCS(=O)(=O)Nc1ccc(-c2c(C#N)c3ccc(OCCCN4C(=O)CCC4=O)cc3n2C2CCC2)cc1"
obs_value = "215 to 216 °C"


I would be grateful if you could share the reported melting point for N#Cc1c(-c2ccc(Nc3nc(-c4ccc(F)cc4)cs3)cc2)n(C2CCC2)c2cc(OC3CCOCC3)ccc12 . 269 to 271 °C

Please answer likewise for CC(C)NC(=O)N(C(=O)NC(C)C)c1ccc(-c2c(C#N)c3ccc(-c4ccccn4)cc3n2C2CCC2)cc1 193 to 194 °C

###

This section presents molecules with their documented melting point values.

As a guide, the following entries are already answered.
[[record]]
smiles_data = "C[C@@H](OC(=O)Nc1ccc(-c2c(C#N)c3cc(Oc4ncccn4)ccc3n2C2CCC2)cc1)C1CC1"
obs_value = "200 to 202 °C"

[[record]]
smiles_data = "C[C@@H](OC(=O)Nc1ccc(-c2c(C#N)c3ccc(N4CCCC4)cc3n2C2CCC2)cc1)C1CC1"
obs_value = "205 to 210 °C"

[[record]]
smiles_data = "N#Cc1c(-c2ccc(NC(=O)OCc3ccccc3)cc2)n(C2CCC2)c2ccc(OCCCn3ccnc3)cc12"
obs_value = "229 to 231 °C"

[[record]]
smiles_data = "C[C@@H](OC(=O)Nc1ccc(-c2c(C#N)c3ccc(C(=O)N4CCSCC4)cc3n2C2CCC2)cc1)C1CC1"
obs_value = "148 to 151 °C"

[[record]]
smiles_data = "CC(C)(C)c1csc(Nc2ccc(-c3c(C#N)c4ccc(OC5CCOCC5)cc4n3C3CCC3)cc2)n1"
obs_value = "246 to 248 °C"


Query (molecule): Cc1csc(Nc2ccc(-c3c(C#N)c4ccc(OC5CCOCC5)cc4n3C3CCC3)cc2)n1 ; field requested: melting point 215 to 217 °C

Please give the result for CCN(CC)C(=O)Oc1ccc(-c2c(C#N)c3ccc(OC4CCOCC4)cc3n2C2CCC2)cc1 too. 137 to 138 °C

###

READOUT_KIND: melting point

Below are worked cases with known answers.
[[record]]
compound = "CCn1c(-c2ccc(NC(=O)OC(C)C)cc2)c(C#N)c2ccc(OCCOC)cc21"
obs_value = "141 to 144 °C"

[[record]]
compound = "Cc1cc(Nc2ccc(-c3c(C#N)c4ccc(Oc5ncccn5)cc4n3C3CCC3)cc2)n(C)n1"
obs_value = "236 to 238 °C"


Value lookup for melting point; key = CCCS(=O)(=O)Nc1ccc(-c2c(C#N)c3ccc(Oc4ncccc4C#N)cc3n2CC2CC2)c(Cl)c1 218 to 220 °C

Try the compound CN1CCN(C(=O)c2ccc3c(C#N)c(-c4ccc(NS(=O)(=O)C5CC5)cc4)n(C4CCC4)c3c2)CC1 124 to 127 °C

Same read-out for CCn1c(-c2ccc(NS(=O)(=O)CC)cc2)c(C#N)c2ccc(C(=O)N3CCCC3)cc21 ? 168 to 171 °C

Let us now turn to N#Cc1c(-c2ccc(NCCCc3ccccc3)cc2)n(C2CCC2)c2cc(OCCF)ccc12 121 to 124 °C

Next record, please: C[C@@H](OC(=O)Nc1ccc(-c2c(C#N)c3cc(OCC4COCO4)ccc3n2C2CCC2)cc1)C(F)(F)F (stereo partly shown) 162 to 169 °C

###

READOUT_KIND: melting point

Example results:
[[record]]
molecule = "C[C@@H](OC(=O)Nc1ccc(-c2c(C#N)c3ccc(OC(=O)NCCc4ccccc4)cc3n2C2CCC2)cc1)C1CC1"
readout_kind = "melting point"
obs_value = "203 to 206 °C"

[[record]]
molecule = "N#Cc1c(-c2ccc(NS(=O)(=O)NCC3CC3)cc2)n(C2CCC2)c2cc(Oc3nccnc3Cl)ccc12"
readout_kind = "melting point"
obs_value = "206 to 208 °C"

[[record]]
molecule = "CCNC(=O)Oc1ccc(-c2c(C#N)c3ccc(OC4CCOCC4)cc3n2CC2CC2)cc1"
readout_kind = "melting point"
obs_value = "155 to 156 °C"

[[record]]
molecule = "C[C@@H](OC(=O)Nc1ccc(-c2c(C#N)c3ccc(N4CCOCC4)cc3n2C2CC2)cc1)C1CC1"
readout_kind = "melting point"
obs_value = "176 to 179 °C"

[[record]]
molecule = "CC(C)(C)OC(=O)Nc1ccc(-c2c(C#N)c3ccc(OCS(C)(=O)=O)cc3n2C2CCCC2)cc1"
readout_kind = "melting point"
obs_value = "237 to 241 °C"

[[record]]
molecule = "N#Cc1c(-c2ccc(NC(=O)OC3CCS(=O)(=O)CC3)cc2)n(C2CC2)c2cc(Oc3ncccn3)ccc12"
readout_kind = "melting point"
obs_value = "240 to 246 °C"

[[record]]
molecule = "N#Cc1c(-c2ccc(NC(=O)OCc3ccccc3)cc2)n(C2CCC2)c2ccc(OCCCn3cncn3)cc12"
readout_kind = "melting point"
obs_value = "215 to 217 °C"

[[record]]
molecule = "C[C@@H](OC(=O)Nc1ccc(-c2c(C#N)c3ccc(N4CCOCC4)cc3n2C2CCC2)cc1)C1CC1"
readout_kind = "melting point"
obs_value = "194 to 195 °C"

[[record]]
molecule = "CCCS(=O)(=O)Nc1ccc(-c2c(C#N)c3ccc(Oc4ncccc4C#N)cc3n2CC2CC2)c(C)c1"
readout_kind = "melting point"
obs_value = "235 to 239 °C"

[[record]]
molecule = "CCCS(=O)(=O)Nc1ccc(-c2c(C#N)c3ccc(Oc4nccnc4C)cc3n2C2CC2)cc1"
readout_kind = "melting point"
obs_value = "191 to 193 °C"


Now, please, on to the next molecule.
Requested field: melting point. Item: CCC(C)NC(=O)c1ccc2c(C#N)c(-c3ccc(NC(=O)O[C@H](C)C4CC4)cc3)n(C3CCC3)c2c1 (stereo partly drawn) 118 to 121 °C

###

READOUT_KIND: melting point

What melting point value was documented for this compound, CCOc1ccc2c(C#N)c(-c3ccc(NC(=O)NCCN4CCOCC4)cc3)n(C3CCC3)c2c1 ? 217 to 223 °C

Please answer likewise for CC(C)S(=O)(=O)Nc1ccc(-c2c(C#N)c3ccc(C(=O)N4CCOCC4)cc3n2C2CCC2)cc1 169 to 171 °C

And for CCOc1ccc2c(C#N)c(-c3ccc(S(=O)(=O)N4CCCCC4)cc3)n(C3CCC3)c2c1 ? 195 to 202 °C

And what about the compound CCC(OC(=O)Nc1ccc(-c2c(C#N)c3ccc(OC4CCOC4)cc3n2C2CCC2)cc1)C(C)C (stereo not shown) ? 183 to 184 °C

###

READOUT_KIND: melting point

[[record]]
smiles_data = "N#Cc1c(-c2ccc(N)cc2)n(C2CCC2)c2cc(Oc3nccc(N4CCOCC4)n3)ccc12"
obs_value = "149 to 152 °C"


Give the measured melting point of CCOc1ccc2c(C#N)c(-c3ccc(C(=O)NCCc4ccccn4)cc3)n(C3CCC3)c2c1 . 194 to 195 °C

# iterate: CCCS(=O)(=O)Nc1ccc(-c2c(C#N)c3ccc(OCCO)cc3n2C2CCC2)cc1 163 to 164 °C

Follow-up item: CCOc1ccc2c(C#N)c(-c3ccc(NC(=O)O[C@@H](C)c4ccncc4)cc3)n(C3CCC3)c2c1 180 to 183 °C
